Every entry's value here was drawn from the supplement of paper PMC3545927.

biological target: furin, P09958; test: furin cleavage Z-score vs untreated control; higher = more cleavage, active = 3.5 or more, inactive = 1 or less, 8 variable residues between constant flanks; conditions: 30 min;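 note: purified furin at 1:10 enzyme:substrate in 50 mM HEPES pH 7.5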
Sequence (P09958 whole entry): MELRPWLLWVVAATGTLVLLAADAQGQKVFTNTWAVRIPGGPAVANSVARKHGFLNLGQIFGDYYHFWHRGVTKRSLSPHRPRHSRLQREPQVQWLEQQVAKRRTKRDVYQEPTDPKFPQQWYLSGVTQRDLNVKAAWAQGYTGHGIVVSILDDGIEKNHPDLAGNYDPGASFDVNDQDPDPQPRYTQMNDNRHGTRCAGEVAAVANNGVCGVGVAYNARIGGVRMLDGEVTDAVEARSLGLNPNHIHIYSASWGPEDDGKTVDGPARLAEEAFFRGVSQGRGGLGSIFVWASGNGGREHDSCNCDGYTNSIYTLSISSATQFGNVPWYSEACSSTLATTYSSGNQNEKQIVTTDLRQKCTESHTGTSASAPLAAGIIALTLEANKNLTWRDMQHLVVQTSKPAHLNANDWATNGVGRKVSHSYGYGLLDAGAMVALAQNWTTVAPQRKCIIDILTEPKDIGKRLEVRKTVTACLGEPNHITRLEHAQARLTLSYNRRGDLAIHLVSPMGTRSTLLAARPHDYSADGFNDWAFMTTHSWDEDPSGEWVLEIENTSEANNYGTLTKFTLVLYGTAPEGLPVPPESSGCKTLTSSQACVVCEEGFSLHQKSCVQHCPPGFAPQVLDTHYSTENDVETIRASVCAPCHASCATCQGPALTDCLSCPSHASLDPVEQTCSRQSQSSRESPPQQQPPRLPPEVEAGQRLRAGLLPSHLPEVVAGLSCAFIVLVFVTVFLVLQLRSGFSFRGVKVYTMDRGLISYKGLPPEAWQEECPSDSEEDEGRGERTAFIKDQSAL
Some of the results follow. No count for the full screen is at hand.
property_label: furin cleavage Z-score
API doc: respond with a numeric literal and nothing else, no unit.

Take a look at these entries with their results.
CARAGRSKGTAGNASASA [FU10] :: 0.0134
CADPQRSRRCAGNASASA [FS-986] :: 1.13
CARIKRGNTTAGNASASA [FS-2952] :: 4.43

Dear colleague, I am looking for the recorded furin cleavage Z-score of the following sequence: CASGARRRRCAGNASASA [FS-498]
0.773

Also check CAGAAKAAAGAGNASASA [NG6]
-1.77

Also check CARKKKRQSLAGNASASA [FS-2153]
0.449

Also check CAHQWISSECAGNASASA [HC1141]
0.453
